# Tested on: porcine P-gp
# ASSAY INFO: Bidirectional transport assay of enrofloxacin in MDCK-pAbcb1 cell monolayers
# Format: in vitro ADME, pig
# STATED CONDITIONS: pig, MDCK-pAbcb1, enrofloxacin 12 μM alone; efflux ratio in MDCK-pAbcb1 / efflux ratio in MDCK; read-out: Net efflux ratio
OBSERVATION TYPE: efflux ratio at 120 min, 12 μM

Input CCN1CCN(c2cc3c(cc2F)c(=O)c(C(=O)O)cn3C2CC2)CC1 . Output efflux ratio at 120 min, 12 μM: > 2

###

# ASSAY INFO: in vivo
# STATED CONDITIONS: pig, plasma, po, 10 mg/kg
OBSERVATION TYPE: Cmax
Answer format: value, then unit.

According to the records, this molecule CCN1CCN(c2cc3c(cc2F)c(=O)c(C(=O)O)cn3C2CC2)CC1 displays Cmax of 3390 ng/mL
